Hey, just so you know, these numbers are from ChEMBL document CHEMBL1126447.

target: Acetylcholinesterase (Electrophorus electricus)
Sequence (O42275 whole entry): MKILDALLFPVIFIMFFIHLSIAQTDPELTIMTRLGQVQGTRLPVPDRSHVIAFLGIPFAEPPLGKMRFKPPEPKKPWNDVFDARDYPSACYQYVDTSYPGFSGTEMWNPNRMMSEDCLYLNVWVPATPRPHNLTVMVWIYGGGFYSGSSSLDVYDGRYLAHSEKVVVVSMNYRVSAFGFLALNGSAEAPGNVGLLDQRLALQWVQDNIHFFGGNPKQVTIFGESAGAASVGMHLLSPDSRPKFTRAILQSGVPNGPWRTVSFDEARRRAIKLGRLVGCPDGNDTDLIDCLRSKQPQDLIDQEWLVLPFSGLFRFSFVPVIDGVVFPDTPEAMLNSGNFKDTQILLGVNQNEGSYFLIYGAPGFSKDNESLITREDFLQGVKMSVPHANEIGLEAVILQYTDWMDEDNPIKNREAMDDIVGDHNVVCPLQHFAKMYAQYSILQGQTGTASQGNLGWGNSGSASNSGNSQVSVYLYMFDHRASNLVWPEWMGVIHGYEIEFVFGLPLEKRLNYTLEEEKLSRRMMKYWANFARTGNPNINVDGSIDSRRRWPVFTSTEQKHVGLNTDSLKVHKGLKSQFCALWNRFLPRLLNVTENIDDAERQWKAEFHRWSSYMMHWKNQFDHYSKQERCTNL
pIC50: −log10 of the molar value.

{"compound": "Nc1c2c(nc3ccccc13)C1CCC2C1 (centres undefined)", "pIC50": 7.93}
{"compound": "Nc1c2c(nc3cc(Cl)ccc13)C1CCC2C1 (centres undefined)", "pIC50": 8.63}
{"compound": "Nc1c2c(nc3c(Cl)cccc13)CCCC2", "pIC50": 7.44}
{"compound": "Nc1c2c(nc3ccc(Cl)cc13)CCCC2", "pIC50": 7.40}
{"compound": "Nc1c2c(nc3cccc(Cl)c13)C1CCC2C1 (centres undefined)", "pIC50": 8.19}
{"compound": "Nc1c2c(nc3cccc(Cl)c13)CCCC2", "pIC50": 8.35}
{"compound": "Nc1c2c(nc3cc(Cl)ccc13)CCCC2", "pIC50": 8.54}
{"compound": "Nc1c2c(nc3ccccc13)CCCC2O (centres undefined) [VELNACRINE]", "pIC50": 7.22}
{"compound": "Nc1c2c(nc3c(Cl)cccc13)C1CCC2C1 (centres undefined)", "pIC50": 6.31}

====

Each record here notes measured IC50.
biological target: UniProt P22303
Sequence (P22303 whole entry): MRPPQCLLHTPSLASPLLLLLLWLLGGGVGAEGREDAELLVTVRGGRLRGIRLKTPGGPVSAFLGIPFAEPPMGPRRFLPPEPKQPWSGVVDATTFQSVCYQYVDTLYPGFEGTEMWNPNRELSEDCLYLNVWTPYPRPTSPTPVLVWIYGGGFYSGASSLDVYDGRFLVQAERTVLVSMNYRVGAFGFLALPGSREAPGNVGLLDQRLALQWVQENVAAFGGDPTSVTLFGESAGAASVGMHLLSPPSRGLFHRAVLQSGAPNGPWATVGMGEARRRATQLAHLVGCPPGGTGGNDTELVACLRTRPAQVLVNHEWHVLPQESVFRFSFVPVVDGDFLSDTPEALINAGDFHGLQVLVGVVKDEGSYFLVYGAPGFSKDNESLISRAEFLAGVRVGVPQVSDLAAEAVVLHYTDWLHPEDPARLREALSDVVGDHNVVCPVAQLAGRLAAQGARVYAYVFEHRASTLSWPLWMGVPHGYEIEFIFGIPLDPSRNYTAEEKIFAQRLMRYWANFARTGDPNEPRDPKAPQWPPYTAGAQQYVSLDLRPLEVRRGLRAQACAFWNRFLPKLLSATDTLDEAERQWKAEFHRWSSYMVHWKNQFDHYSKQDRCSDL
reportedProperty: IC50

{"molecule": "Nc1c2c(nc3ccc(Cl)cc13)CCCC2", "reportedProperty": "IC50", "recordedValue": "743 nM"}
{"molecule": "Nc1c2c(nc3cccc(Cl)c13)C1CCC2C1 (stereo unspecified)", "reportedProperty": "IC50", "recordedValue": "42.2 nM"}
{"molecule": "Nc1c2c(nc3c(Cl)cccc13)C1CCC2C1 (stereo unspecified)", "reportedProperty": "IC50", "recordedValue": "84.3 nM"}
{"molecule": "Nc1c2c(nc3cccc(Cl)c13)CCCC2", "reportedProperty": "IC50", "recordedValue": "9.4 nM"}
{"molecule": "Nc1c2c(nc3cc(Cl)ccc13)C1CCC2C1 (stereo unspecified)", "reportedProperty": "IC50", "recordedValue": "4.5 nM"}
{"molecule": "Nc1c2c(nc3c(Cl)cccc13)CCCC2", "reportedProperty": "IC50", "recordedValue": "68.9 nM"}

====

target: Butyrylcholinesterase (Equus caballus, UniProt Q9N1N9)
Sequence (Q9N1N9 whole entry): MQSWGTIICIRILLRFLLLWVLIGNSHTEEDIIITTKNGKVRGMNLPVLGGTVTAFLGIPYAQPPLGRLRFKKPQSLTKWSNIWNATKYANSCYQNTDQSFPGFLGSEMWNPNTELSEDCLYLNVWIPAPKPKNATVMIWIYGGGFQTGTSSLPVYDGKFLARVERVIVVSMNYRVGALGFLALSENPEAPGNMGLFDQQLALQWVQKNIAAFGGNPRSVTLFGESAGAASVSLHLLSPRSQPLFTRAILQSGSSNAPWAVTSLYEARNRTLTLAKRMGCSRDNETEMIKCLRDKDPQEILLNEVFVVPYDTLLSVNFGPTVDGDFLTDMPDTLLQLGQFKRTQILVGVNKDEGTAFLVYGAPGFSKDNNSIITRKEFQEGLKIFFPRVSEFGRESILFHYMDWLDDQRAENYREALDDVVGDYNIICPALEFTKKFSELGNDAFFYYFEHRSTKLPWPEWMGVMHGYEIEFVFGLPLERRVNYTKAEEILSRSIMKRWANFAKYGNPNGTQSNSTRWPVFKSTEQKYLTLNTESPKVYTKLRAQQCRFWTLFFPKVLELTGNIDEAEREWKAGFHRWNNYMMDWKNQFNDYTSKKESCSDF
I'd appreciate it if you marked entries t when IC50 is lower than 40 nM and f when it is not.

{"compound": "Nc1c2c(nc3c(Cl)cccc13)C1CCC2C1 (centres undefined)", "groupLabel": "f"}
{"compound": "Nc1c2c(nc3ccccc13)CCCC2O (centres undefined) [VELNACRINE]", "groupLabel": "f"}
{"compound": "Nc1c2c(nc3c(Cl)cccc13)CCCC2", "groupLabel": "f"}
{"compound": "Nc1c2c(nc3cccc(Cl)c13)C1CCC2C1 (centres undefined)", "groupLabel": "t"}
{"compound": "Nc1c2c(nc3ccc(Cl)cc13)CCCC2", "groupLabel": "t"}
{"compound": "CNC(=O)Oc1ccc2c(c1)[C@]1(C)CCN(C)[C@@H]1N2C [PHYSOSTIGMINE]", "groupLabel": "f"}
{"compound": "Nc1c2c(nc3cccc(Cl)c13)CCCC2", "groupLabel": "t"}
{"compound": "Nc1c2c(nc3cc(Cl)ccc13)C1CCC2C1 (centres undefined)", "groupLabel": "t"}
{"compound": "Nc1c2c(nc3ccccc13)C1CCC2C1 (centres undefined)", "groupLabel": "t"}
